Reference source for all entries: patent US10398689B2

assay: Pharmacokinetics assay in BALB/C nude mice after intragastrical administration
Type: in vivo
condition context: female, mouse, po, 3 mg/kg, plasma, read-out: Clearance CL/F
Let's look at some molecules and their measured CL/F.
endpoint: CL/F (mL/min/kg)

molecule: CC(C)c1ccc(N2C(C)Cc3cc(-c4cnn(C)c4)ccc3C2c2ccc(/C=C/C(=O)O)cc2)cc1 (stereo not drawn) [Example 16]
observed result: 5.48
--
molecule: CCn1cc(-c2ccc3c(c2)CC(C)N(c2ccc(C(C)C)cc2)C3c2ccc(/C=C/C(=O)O)cc2)cn1 (stereo not drawn) [Example 7]
observed result: 3.88
--
molecule: CCc1ccc(N2C(C)Cc3cc(-c4cnn(C)c4)ccc3C2c2ccc(/C=C/C(=O)O)cc2)cc1 (stereo not drawn) [Example 1]
observed result: 3.48
--
molecule: CCn1cc(-c2ccc3c(c2)C[C@@H](C)N(c2ccc(C(C)C)cc2)[C@@H]3c2ccc(/C=C/C(=O)O)cc2)cn1 [Example 8]
observed result: 5.33
--
molecule: CCn1cc(-c2ccc3c(c2)C[C@@H](C)N(c2ccc(C4CC4)cc2)[C@@H]3c2ccc(/C=C/C(=O)O)cc2)cn1 [Example 14]
observed result: 3.39
--
molecule: C[C@@H]1Cc2cc(-c3cnn(C)c3)ccc2[C@@H](c2ccc(/C=C/C(=O)O)cc2)N1c1ccc(C2CC2)cc1 [Example 11]
observed result: 3.06
--
molecule: CC(C)c1ccc(N2[C@H](c3ccc(/C=C/C(=O)O)cc3)c3ccc(-c4cnn(C)c4)cc3C[C@H]2C)cc1 [Example 42]
observed result: 4.46
--
molecule: CC(C)c1ccc(N2[C@H](c3c(F)cc(/C=C/C(=O)O)cc3F)c3ccc(-c4cnn(C)c4)cc3C[C@H]2C)cc1 [Example 39]
observed result: 4.92
--
molecule: CC1Cc2cc(-c3cnn(C)c3)ccc2C(c2ccc(/C=C/C(=O)O)cc2)N1c1ccc(C2CC2)cc1 (stereo not drawn) [Example 10]
observed result: 7.96

----------
Let's look at some compounds and their measured MRT.
assay: Pharmacokinetics assay in BALB/C nude mice after intragastrical administration
Format: in vivo
condition context: female, mouse, po, 3 mg/kg, plasma, read-out: Mean Residence Time MRT
endpoint: MRT (h)

compound: CC(C)c1ccc(N2C(C)Cc3cc(-c4cnn(C)c4)ccc3C2c2ccc(/C=C/C(=O)O)cc2)cc1 (centres unmarked)
unit info: h
observed result: 4.87

compound: CC(C)c1ccc(N2[C@H](c3ccc(/C=C/C(=O)O)cc3)c3ccc(-c4cnn(C)c4)cc3C[C@H]2C)cc1
unit info: h
observed result: 9.21

compound: C[C@@H]1Cc2cc(-c3cnn(C)c3)ccc2[C@@H](c2ccc(/C=C/C(=O)O)cc2)N1c1ccc(C2CC2)cc1
unit info: h
observed result: 7.9

compound: CCc1ccc(N2C(C)Cc3cc(-c4cnn(C)c4)ccc3C2c2ccc(/C=C/C(=O)O)cc2)cc1 (centres unmarked)
unit info: h
observed result: 4.53

compound: CCn1cc(-c2ccc3c(c2)CC(C)N(c2ccc(C(C)C)cc2)C3c2ccc(/C=C/C(=O)O)cc2)cn1 (centres unmarked)
unit info: h
observed result: 6.8

----------
assay: Pharmacokinetics assay in BALB/C nude mice after intragastrical administration
Assay type: in vivo
condition context: female, mouse, po, 3 mg/kg, plasma, read-out: Half-Life t1/2 (converted)

compound: CC1Cc2cc(-c3cnn(C)c3)ccc2C(c2ccc(/C=C/C(=O)O)cc2)N1c1ccc(C2CC2)cc1 (stereo not shown)
unit info: h
half-life: 4.61
//
compound: CCn1cc(-c2ccc3c(c2)C[C@@H](C)N(c2ccc(C4CC4)cc2)[C@@H]3c2ccc(/C=C/C(=O)O)cc2)cn1
unit info: h
half-life: 4.29
//
compound: CCn1cc(-c2ccc3c(c2)C[C@@H](C)N(c2ccc(C(C)C)cc2)[C@@H]3c2ccc(/C=C/C(=O)O)cc2)cn1
unit info: h
half-life: 3.27
//
compound: C[C@@H]1Cc2cc(-c3cnn(C)c3)ccc2[C@@H](c2ccc(/C=C/C(=O)O)cc2)N1c1ccc(C2CC2)cc1
unit info: h
half-life: 5.58

----------
Let's look at some molecules and their measured half-life.
assay: Pharmacokinetics assay in BALB/C nude mice after intragastrical administration
Type: in vivo
condition context: female, mouse, po, 3 mg/kg, plasma, read-out: Half-Life t1/2 (converted)

molecule: CCc1ccc(N2C(C)Cc3cc(-c4cnn(C)c4)ccc3C2c2ccc(/C=C/C(=O)O)cc2)cc1 (centres unmarked)
half-life / min: 172

molecule: CCn1cc(-c2ccc3c(c2)CC(C)N(c2ccc(C(C)C)cc2)C3c2ccc(/C=C/C(=O)O)cc2)cn1 (centres unmarked)
half-life / min: 220

molecule: CC(C)c1ccc(N2[C@H](c3ccc(/C=C/C(=O)O)cc3)c3ccc(-c4cnn(C)c4)cc3C[C@H]2C)cc1
half-life / min: 482

molecule: CC(C)c1ccc(N2[C@H](c3c(F)cc(/C=C/C(=O)O)cc3F)c3ccc(-c4cnn(C)c4)cc3C[C@H]2C)cc1
half-life / min: 216

molecule: CC(C)c1ccc(N2C(C)Cc3cc(-c4cnn(C)c4)ccc3C2c2ccc(/C=C/C(=O)O)cc2)cc1 (centres unmarked)
half-life / min: 181

----------
Let's look at some compounds and their measured Emax at 3 µM.
assay target: ERα (Homo sapiens, UniProt P03372)
Construct: host or cells: MCF-7
assay: Degradation effect on ERα in MCF-7 cells (ERα Duoset ELISA)
Assay type: cell-based
condition context: MCF7; compound at 3 μM, relative to positive control AZD-9496 at 3 μM set to 100%
endpoint: Emax at 3 µM (%)

compound: COc1ccc(N2C(C)Cc3cc(-c4cnn(C)c4)ccc3C2c2ccc(/C=C/C(=O)O)cc2)cc1 (stereo not shown)
observed result: 111
//
compound: CC(C)c1ccc(N2[C@H](c3ccc(/C=C/C(=O)O)cc3)c3ccc(-c4cnn(C)c4)cc3C[C@H]2C)cc1
observed result: 112
//
compound: CCc1ccc(N2C(C)Cc3cc(-c4cnn(C)c4)ccc3C2c2ccc(/C=C/C(=O)O)cc2)cc1 (stereo not shown)
observed result: 115
//
compound: C[C@@H]1Cc2cc(-c3cnn(C)c3)ccc2[C@@H](c2ccc(/C=C/C(=O)O)cc2)N1c1ccc(C2CC2)cc1
observed result: 134

----------
assay target: ERα (Homo sapiens, UniProt P03372)
Construct: host or cells: MCF-7
assay: Degradation effect on ERα in MCF-7 cells (ERα Duoset ELISA)
Format: cell-based
condition context: MCF7; compound at 3 μM, relative to positive control AZD-9496 at 3 μM set to 100%

compound: CCn1cc(-c2ccc3c(c2)C[C@@H](C)N(c2ccc(C(C)C)cc2)[C@@H]3c2ccc(/C=C/C(=O)O)cc2)cn1
Emax at 3 µM (%): 129

compound: CCn1cc(-c2ccc3c(c2)CC(C)N(c2ccc(C(C)C)cc2)C3c2ccc(/C=C/C(=O)O)cc2)cn1 (stereo not drawn)
Emax at 3 µM (%): 118

compound: CCn1cc(-c2ccc3c(c2)C[C@@H](C)N(c2ccc(C4CC4)cc2)[C@@H]3c2ccc(/C=C/C(=O)O)cc2)cn1
Emax at 3 µM (%): 147

compound: CC(C)c1ccc(N2[C@@H](c3c(F)cc(/C=C/C(=O)O)cc3F)c3ccc(-c4cnn(C)c4)cc3C[C@@H]2C)cc1 (racemic)
Emax at 3 µM (%): 115

compound: CCc1ccc(N2[C@H](c3ccc(/C=C/C(=O)O)cc3)c3ccc(-c4cnn(C)c4)cc3C[C@H]2C)cc1
Emax at 3 µM (%): 114

compound: CC1Cc2cc(-c3cnn(C)c3)ccc2C(c2c(F)cc(/C=C/C(=O)O)cc2F)N1c1ccc(C2CC2)cc1 (stereo not drawn)
Emax at 3 µM (%): 136

----------
assay target: ER (estrogen receptor) (Homo sapiens)
Construct: MCF-7/ERE-luciferase monoclonal cells were selected by transfection of MCF-7
Sequence (P03372 1-595): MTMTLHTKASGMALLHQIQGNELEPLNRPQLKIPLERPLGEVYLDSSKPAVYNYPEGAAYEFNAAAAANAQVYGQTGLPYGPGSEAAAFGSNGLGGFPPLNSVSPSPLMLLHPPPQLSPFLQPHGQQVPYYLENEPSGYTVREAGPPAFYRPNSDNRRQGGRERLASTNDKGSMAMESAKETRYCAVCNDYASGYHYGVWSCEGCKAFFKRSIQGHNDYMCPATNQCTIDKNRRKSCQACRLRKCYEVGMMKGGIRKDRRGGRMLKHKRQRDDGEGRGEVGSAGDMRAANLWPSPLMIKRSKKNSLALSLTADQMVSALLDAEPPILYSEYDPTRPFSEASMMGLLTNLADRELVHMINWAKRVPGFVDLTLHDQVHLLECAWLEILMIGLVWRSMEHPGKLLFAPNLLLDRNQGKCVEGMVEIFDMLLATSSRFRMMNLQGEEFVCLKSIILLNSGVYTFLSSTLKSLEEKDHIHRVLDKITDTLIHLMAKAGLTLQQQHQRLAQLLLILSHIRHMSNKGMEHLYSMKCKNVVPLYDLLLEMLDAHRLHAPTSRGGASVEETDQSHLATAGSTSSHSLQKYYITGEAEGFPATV
assay: Inhibition of the binding of estrogen (E) to estrogen receptor (ER), MCF-7/ERE-luciferase reporter cells
condition context: MCF-7/ERE-luciferase cells, 0.1 nM estradiol, 24 hours, chemiluminescence; read-out: IC50 value of inhibition effect on the binding of E to ER
pIC50: −log10 of the molar value.
Mark met for reported pIC50 of 9 or greater; mark not met for anything smaller.

molecule: CC(C)c1ccc(N2[C@H](c3c(F)cc(/C=C/C(=O)O)cc3F)c3ccc(-c4cnn(C)c4)cc3C[C@H]2C)cc1
qualitative label: met
//
molecule: CCn1cc(-c2ccc3c(c2)C[C@@H](C)N(c2ccc(C(C)C)cc2)[C@@H]3c2ccc(/C=C/C(=O)O)cc2)cn1
qualitative label: met
//
molecule: CCOc1ccc(N2C(C)Cc3cc(-c4cnn(C)c4)ccc3C2c2ccc(/C=C/C(=O)O)cc2)cc1 (centres unmarked)
qualitative label: not met
//
molecule: C[C@@H]1Cc2cc(-c3cnn(C)c3)ccc2[C@@H](c2ccc(/C=C/C(=O)O)cc2)N1c1ccc(C2CC2)cc1
qualitative label: met
//
molecule: CCn1cc(-c2ccc3c(c2)CC(C)N(c2ccc(C4CC4)cc2)C3c2ccc(/C=C/C(=O)O)cc2)cn1 (centres unmarked)
qualitative label: met
//
molecule: CCn1cc(-c2ccc3c(c2)C[C@@H](C)N(c2ccc(C4CC4)cc2C)[C@@H]3c2ccc(/C=C/C(=O)O)cc2)cn1
qualitative label: met
//
molecule: CCc1ccc(N2C(C)Cc3cc(-c4cnn(CC)c4)ccc3C2c2ccc(/C=C/C(=O)O)cc2)cc1 (centres unmarked)
qualitative label: not met
//
molecule: CC(C)c1ccc(N2[C@H](c3ccc(/C=C/C(=O)O)cc3)c3ccc(-c4cnn(C)c4)cc3C[C@H]2C)cc1
qualitative label: met
//
molecule: CCn1cc(-c2ccc3c(c2)C[C@@H](C)N(c2ccc(C(C)C)cc2)[C@@H]3c2c(F)cc(/C=C/C(=O)O)cc2F)cn1
qualitative label: met
//
molecule: CC1Cc2cc(-c3cnn(C)c3)ccc2C(c2c(F)cc(/C=C/C(=O)O)cc2F)N1c1ccc(C2CC2)cc1 (centres unmarked)
qualitative label: met
//
molecule: CCc1ccc(N2C(C)Cc3cc(-c4cnn(C)c4)ccc3C2c2ccc(/C=C/C(=O)O)cc2)c(CC)c1 (centres unmarked)
qualitative label: not met
//
molecule: CCc1ccc(N2C(C)Cc3cc(-c4cnn(C)c4)ccc3C2c2ccc(/C=C/C(=O)O)cc2)cc1 (centres unmarked)
qualitative label: not met
//
molecule: Cc1ccc(N2[C@H](c3ccc(/C=C/C(=O)O)cc3)c3ccc(-c4cnn(C)c4)cc3C[C@H]2C)cc1
qualitative label: not met
//
molecule: CC1Cc2cc(-c3cnn(C)c3)ccc2C(c2ccc(/C=C/C(=O)O)cc2)N1c1ccc(CC2CC2)cc1 (centres unmarked)
qualitative label: not met
//
molecule: CC(C)c1ccc(N2C(C)Cc3cc(-c4cnn(C(F)F)c4)ccc3C2c2ccc(/C=C/C(=O)O)cc2)cc1 (centres unmarked)
qualitative label: not met
//
molecule: CCn1cc(-c2ccc3c(c2)C[C@@H](C)N(c2ccc(C4CC4)cc2)[C@@H]3c2ccc(/C=C/C(=O)O)cc2)cn1
qualitative label: met
